Test: MM1S myeloma cell viability, profiling panel, resazurin fluorescence, basal, 24 h, PK04 Diversity Set (AID 1174);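 further: MM1S multiple myeloma cell line; test concentration not given here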
Conditions: higher = more signal, called active from +8 up or from −8 down
Tag: Criterion met if measured z-score is not below 0.2, Criterion not met if it is.

Check out these entries, answers already filled in.
INSERT INTO assay_data (compound, label) VALUES
  ('CCOC(=O)[C@H](CC(C)C)NC(=O)CCC1CC(OC(=O)NCc2cccc3ccccc23)CC2(CCCC(COC(=O)NCCN3CCOCC3)O2)O1 (stereo partly specified)', 'Criterion met'),
  ('COc1ccc(O[C@H]2C=C[C@@H](c3ccccc3)O[C@@H]2COC(=O)CCC(C)=NOC[C@@H](C)[C@H](OCc2ccccc2)C(C)C)cc1', 'Criterion met');

Test whether the compound COCCOC(=O)N1C(=O)[C@@]2(c3cc(C#Cc4ccc(OC)cc4)ccc31)[C@H](c1ccc(O)cc1)N1[C@H](c3ccccc3)[C@H](c3ccccc3)OC(=O)[C@H]1[C@@H]2C(N)=O records z-score of 0.2 or higher.
Criterion not met

Repeat with C[N+](C)(C)CCCCCCNC(=O)[C@@H]1C[C@@H]2C(=O)N3CCC[C@H]3C(=O)N2[C@@H]1c1cccc(OCCO)c1
Criterion met

Repeat with CC1CC/C=C\[C@H]2OC34C=CCN(Cn5nnc6ccccc65)C(=O)[C@H]3N(CCO)C(=O)[C@@H]4C2C(=O)O1 (stereo partly specified)
Criterion met

Repeat with C/C=C\[C@@H](NCc1ccccc1Br)[C@@H](O)Cc1ccccc1
Criterion not met
